Data provenance: paper PMC10584170

- System: P. falciparum male gametocytes
- experimental-details: P. falciparum Dual Gamete Formation Assay (PfDGFA), male readout (exflagellation)
- Format: cell-based, Plasmodium falciparum NF54
- study-conditions: PfDGFA at 2µM, 24h preincubation with gametocytes prior to induction of gametogenesis; replicate R1
parameter-measured: % inhibition male (individual replicates) R1 (%)
State just the number; it will be interpreted in %.

q: Please supply the value of reported % inhibition male (individual replicates) R1 for the item CC(Cc1ccc(COc2ccc(CC(CO)NCCc3cccc(Cl)c3)cc2)cc1)NCCc1cccc(Cl)c1.Cl (stereo not shown)
a: -13.5

Next:
q: Report measured % inhibition male (individual replicates) R1; entry is `O=C(Nc1ccsc1)Nc1cccc(-c2ccc(-c3nc4cc(C(F)(F)F)ccc4[nH]3)cc2)c1`
a: -6.9

q: Supply reported % inhibition male (individual replicates) R1 belonging to this molecule: COc1ccc(OC)c(C=CC(=O)NC2CCC(CN3CCC(c4c[nH]c5ccccc45)CC3)CC2)c1 (stereo not shown)
a: 4.2

q: State its % inhibition male (individual replicates) R1 for this molecule: `O=C(O)C(F)(F)F.c1cc(CNCCN2CCNCC2)cc(-c2ccc(-c3nc4ccccc4[nH]3)cc2)c1`
a: -18.7

----------
- Test system: P. falciparum female gametocytes
- experimental-details: P. falciparum Dual Gamete Formation Assay (PfDGFA), female readout (Pfs25-positive female gametes)
- Type: cell-based, Plasmodium falciparum NF54
- study-conditions: HepG2 Tox50 versus female IC50
// reported Selectivity ratio F for each item listed
I'd appreciate a reply containing only the number, no unit.

q: Please report Selectivity ratio F for the following molecule: FC(F)(F)c1ccc2[nH]c(-c3cccc(-c4cccc(CNCCN5CCNCC5)c4)c3)nc2c1.O=C(O)C(F)(F)F [TCMDC-132871]
a: 1.27

q: Dear colleague, please send me the reported Selectivity ratio F for COCCN(C)CCCOc1cc2c(cc1OC)ncn2-c1cc(OCc2ccccc2C(F)(F)F)c(C(N)=O)s1.Cl [TCMDC-135214] when you can.
a: 1.36

q: Specify Selectivity ratio F for COc1c(C2CCN(CCCCNC(=O)c3ccc(-c4ccc(Cl)cc4)c(OCCN(C)C)c3)CC2)ccc2c1CCCC2 [TCMDC-134371] and stop.
a: 0.69

q: Given the molecule Fc1ccc2[nH]c(-c3ccc(-c4ccc(CNCCN5CCNCC5)cc4)s3)nc2c1.O=C(O)C(F)(F)F [TCMDC-132869] , write its reported Selectivity ratio F.
a: 3.35

q: Supply measured Selectivity ratio F of CCc1c(CCNCCCC(C)CCNCCc2ccc(OC)c(OC)c2CC)ccc(OC)c1OC.Cl (stereo not shown) [TCMDC-132065] in your reply.
a: 0.73

q: Assign Selectivity ratio F to the following record: CN1CCN(c2ccc(Nc3ncc(Cl)c(Nc4cccnc4C(N)=O)n3)cc2)CC1.Cl [TCMDC-134164]
a: 1.15

Kindly review the next molecule as well.
q: Output Selectivity ratio F of COc1ccc(Nc2ncc(Cl)c(Nc3cccnc3C(N)=O)n2)cc1N1CCN(C)CC1.Cl [TCMDC-134163]
a: 0.3

----------
Reported IC50 values follow for various molecules
- Test system: P. falciparum male gametocytes
- experimental-details: P. falciparum Dual Gamete Formation Assay (PfDGFA), male readout (exflagellation)
- Assay type: cell-based, Plasmodium falciparum NF54
- study-conditions: PfDGFA, 24 h incubation with gametocytes before induction, exflagellation readout; read-out: Male IC50
Give just the number in nM; leave the unit off.

q: Give reported IC50 value for `CNCCNCc1ccc(-c2ccc(-c3nc4cccc(C)c4[nH]3)cc2)cc1.O=C(O)C(F)(F)F`
a: 1670

q: Supply measured IC50 of `CN(C)CCNCc1ccc(-c2ccc3c(Nc4ccc(Cl)cc4F)ccnc3c2)o1` in your reply.
a: 1750

q: Output IC50 of `CS(=O)(=O)O.FC(F)(F)COc1ccc2ccccc2c1CCNCCCCNCCc1c(OCC(F)(F)F)ccc2ccccc12`
a: 1520

q: Identify measured IC50 corresponding to `CS(=O)(=O)O.FC(F)(F)COc1c(CNCCCCCCNCc2ccc3ccccc3c2OCC(F)(F)F)ccc2ccccc12`
a: 1750

q: Look up and state reported IC50 for `Nc1nc(N)c2c(ccc3c2ccn3Cc2ccc(-c3ccccc3)cc2)n1`
a: 470

Continuing:
q: Output measured IC50 for this item: `COc1ccc(CCNCCCCNCCc2ccc(OC)c3ccccc23)c2ccccc12.CS(=O)(=O)O`
a: 1140
